Provenance of the data: ChEMBL document CHEMBL1136799

TEST_METHOD_NOTES: C max in guinea pig
Type: ADME, organism-based, Cavia porcellus
CONDITIONS_USED: in vivo

STRUCTURE_NOTATION: CC(C)c1ccc(NC(=O)N2CCC[C@H]2C(=O)N2CC[C@H]3[C@H]2[C@H](C)C(=O)N3c2nc3ccccc3s2)cc1
QUANTITY_UNIT: ng/mL
Cmax: 32000

* * *

TARGET_ENTITY: Acetylcholinesterase (Homo sapiens)
Sequence (P22303 whole entry): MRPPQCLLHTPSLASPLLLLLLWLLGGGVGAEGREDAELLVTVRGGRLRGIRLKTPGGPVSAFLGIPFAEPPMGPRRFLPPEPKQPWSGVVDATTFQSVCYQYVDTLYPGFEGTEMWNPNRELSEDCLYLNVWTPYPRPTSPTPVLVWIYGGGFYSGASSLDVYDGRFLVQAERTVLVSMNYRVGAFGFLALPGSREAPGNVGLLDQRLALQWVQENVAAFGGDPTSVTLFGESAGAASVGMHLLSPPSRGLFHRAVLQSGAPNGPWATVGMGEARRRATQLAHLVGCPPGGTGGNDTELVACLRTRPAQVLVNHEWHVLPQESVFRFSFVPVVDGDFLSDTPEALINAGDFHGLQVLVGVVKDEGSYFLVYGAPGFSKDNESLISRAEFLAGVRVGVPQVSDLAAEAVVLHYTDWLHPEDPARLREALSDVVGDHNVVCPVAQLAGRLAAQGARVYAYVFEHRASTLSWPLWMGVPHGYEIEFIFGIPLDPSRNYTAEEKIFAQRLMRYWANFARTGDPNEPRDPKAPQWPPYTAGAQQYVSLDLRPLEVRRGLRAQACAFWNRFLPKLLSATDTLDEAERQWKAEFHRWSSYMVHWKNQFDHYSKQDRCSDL
TEST_METHOD_NOTES: Concentration of compound required to inhibit Acetylcholinesterase
RESULT_TYPE: IC50

STRUCTURE_NOTATION: CC(C)c1ccc(NC(=O)N2CCC[C@H]2C(=O)N2CC[C@H]3[C@H]2[C@H](C)C(=O)N3C(=O)[C@@H]2[C@H](C)[C@@H]2C)cc1
EXPERIMENTAL_VALUE: > 100 µM
